Exercise: state measured EC50 for each of the molecules provided.
# assayedSystem: Histamine H4 receptor (Homo sapiens, UniProt Q9H3N8)
# Sequence (Q9H3N8 whole entry, the tested form may be a part): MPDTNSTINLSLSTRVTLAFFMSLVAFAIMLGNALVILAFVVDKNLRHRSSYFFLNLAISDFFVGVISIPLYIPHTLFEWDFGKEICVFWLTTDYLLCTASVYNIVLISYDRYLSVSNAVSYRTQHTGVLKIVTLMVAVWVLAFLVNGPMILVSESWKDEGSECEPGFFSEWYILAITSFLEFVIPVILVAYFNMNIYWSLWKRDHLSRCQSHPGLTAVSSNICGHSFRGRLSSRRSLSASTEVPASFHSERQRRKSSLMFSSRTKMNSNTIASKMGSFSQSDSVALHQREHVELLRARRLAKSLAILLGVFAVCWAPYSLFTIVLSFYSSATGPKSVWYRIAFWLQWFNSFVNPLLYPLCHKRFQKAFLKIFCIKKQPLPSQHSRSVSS
# methodNotes: Agonist activity at human H4 receptor expressed in insect Sf9 cells co-expressing RGS19 fusion protein and Gialpha2, Gbeta1gamma2 assessed as gamma[32P]GTP binding by liquid scintillation counting
API: value field is a number in nM; no unit string.

Ask | Tell me its EC50 given N/C(=N\C(=O)Cc1c[nH]c2ccccc12)NCCCc1c[nH]cn1 as the entry.
Reply | 19.1

Ask | Give EC50 for N/C(=N\C(=O)CCNC(=O)c1cc2ccccc2[nH]1)NCCCc1c[nH]cn1
Reply | 33.1

Ask | Using the record for CCCC(=O)/N=C(\N)NCCCc1c[nH]cn1 , state its measured EC50.
Reply | 2.57

Ask | Please report EC50 for the following molecule: N/C(=N\C(=O)CNC(=O)c1cc2ccccc2[nH]1)NCCCc1c[nH]cn1
Reply | 28.2

Ask | Specify reported EC50 for the molecule shown: CC(=O)NC(N)=NCCCc1cnc[nH]1
Reply | 4.9

Ask | Retrieve EC50 measured for CC(C)C(=O)/N=C(\N)NCCCc1c[nH]cn1 and print it.
Reply | 3.72
